target: human Peroxisome Proliferator-activated Receptor delta (PPARd), PPARD (gene 5467); assay: ATG_PPARd_TRANS: Attagene TRANS-FACTORIAL HepG2 Assay for human Peroxisome Proliferator-activated Receptor delta (PPARd) (AID 2283002)
Records with an inconclusive call do not appear. Calls of active or inactive are those of the source. How the source made its calls: active means hit-call score of the fitted dose curve at least 0.9, where 1 is the maximum; inconclusive means response in the unintended direction; inactive means score below 0.9.
observation.type: outcome

[[record]]
compound = "CC[N+](CC)(CC)Cc1ccccc1"
experimental_value = "inactive"

[[record]]
compound = "CCc1cccc(CC)c1NC(=O)C(=O)O"
experimental_value = "inactive"

[[record]]
compound = "CCCCCCCC(OC)OC"
experimental_value = "inactive"

[[record]]
compound = "Cc1ccccc1C(OCCN(C)C)c1ccccc1 (configuration not stated)"
experimental_value = "inactive"

[[record]]
compound = "CCCCc1ccc2ccccc2c1S(=O)(=O)O"
experimental_value = "inactive"

[[record]]
compound = "Clc1ccc(Nc2nnc(Cc3ccncc3)c3ccccc23)cc1"
experimental_value = "inactive"

[[record]]
compound = "CN(C)c1ccc(C(=C2C=CC(=[N+](C)C)C=C2)c2ccccc2)cc1"
experimental_value = "inactive"

[[record]]
compound = "C=CC(=O)OCCC(F)(F)C(F)(F)C(F)(F)C(F)(F)C(F)(F)C(F)(F)F"
experimental_value = "inactive"

[[record]]
compound = "O=S(=O)(O)C(F)(F)C(F)(F)C(F)(F)C(F)(F)C(F)(F)C(F)(F)C(F)(F)C(F)(F)C(F)(F)C(F)(F)F"
experimental_value = "inactive"

[[record]]
compound = "COC(O)c1ccccc1 (configuration not stated)"
experimental_value = "inactive"

[[record]]
compound = "CCCCCCCCCCCC(=O)O"
experimental_value = "inactive"

[[record]]
compound = "c1cc2cccc3c4cccc5cccc(c(c1)c23)c54"
experimental_value = "inactive"

[[record]]
compound = "c1ccc(CNc2ncnc3c2ncn3C2CCCCO2)cc1 (configuration not stated)"
experimental_value = "inactive"

[[record]]
compound = "C[N+](C)(CCCNS(=O)(=O)CCC(F)(F)C(F)(F)C(F)(F)C(F)(F)C(F)(F)C(F)(F)F)CC(=O)[O-]"
experimental_value = "inactive"

[[record]]
compound = "CCCCCc1ccc(O)cc1"
experimental_value = "inactive"

[[record]]
compound = "CCC(=O)C=Cc1ccc(OC)cc1"
experimental_value = "inactive"

[[record]]
compound = "COC(=O)C(F)(F)C(F)(F)C(F)(F)C(F)(F)C(F)(F)F"
experimental_value = "inactive"

[[record]]
compound = "CCC1CO1 (configuration not stated)"
experimental_value = "inactive"

[[record]]
compound = "O=C(c1cc(O)c(O)c(O)c1)c1ccc(O)c(O)c1O"
experimental_value = "inactive"

[[record]]
compound = "CCO[Si](CCC1CCC2OC2C1)(OCC)OCC (configuration not stated)"
experimental_value = "inactive"

[[record]]
compound = "CCCCCCCCCCCCCCCC(=O)OC"
experimental_value = "inactive"

[[record]]
compound = "Clc1ccc2c(Cl)ccnc2c1"
experimental_value = "inactive"

[[record]]
compound = "O=C(F)C(F)(F)C(F)(F)C(F)(F)C(F)F"
experimental_value = "inactive"

[[record]]
compound = "CCCCCCCCCCCC[N+](C)(C)CCCCCCCCCCCC"
experimental_value = "inactive"

[[record]]
compound = "CCCCCCCCCCCCCC[n+]1ccccc1"
experimental_value = "inactive"

[[record]]
compound = "Cc1ccccc1OCC(=O)O"
experimental_value = "inactive"

[[record]]
compound = "CC(=O)Nc1ccc(S(N)(=O)=O)cc1"
experimental_value = "inactive"

[[record]]
compound = "CCCCC(CC)C(=O)O (configuration not stated)"
experimental_value = "inactive"

[[record]]
compound = "CC(C)(O)C(=O)c1ccccc1"
experimental_value = "inactive"

[[record]]
compound = "CCCCCCCCCCCC[N+](C)(C)Cc1ccccc1"
experimental_value = "inactive"

[[record]]
compound = "O=c1cc(-c2ccccc2)oc2ccc3ccccc3c12"
experimental_value = "inactive"

[[record]]
compound = "O=C(CC(=O)C(F)(F)C(F)(F)C(F)(F)F)c1cccs1"
experimental_value = "inactive"

[[record]]
compound = "CCc1cccc(CC)c1N(COC)C(=O)CS(=O)(=O)O"
experimental_value = "inactive"

[[record]]
compound = "CC(C)[C@@H]1CC[C@@H](C)C[C@H]1O"
experimental_value = "inactive"

[[record]]
compound = "O=S(=O)(c1ccc(OCc2ccccc2)cc1)c1ccccc1O"
experimental_value = "inactive"

[[record]]
compound = "CNNCc1ccc(C(=O)NC(C)C)cc1"
experimental_value = "inactive"

[[record]]
compound = "CCc1ccccc1O"
experimental_value = "inactive"

[[record]]
compound = "Cc1cc(C(=C2C=CC(=Nc3ccc(S(=O)(=O)O)cc3)C=C2)c2ccc(Nc3ccc(S(=O)(=O)O)cc3)cc2)cc(S(=O)(=O)O)c1N"
experimental_value = "inactive"

[[record]]
compound = "O=C(Nc1ccc(Cl)c(Cl)c1)c1cc(Cl)cc(Cl)c1O"
experimental_value = "inactive"

[[record]]
compound = "Cc1cc(=O)oc2cc(O)ccc12"
experimental_value = "inactive"

[[record]]
compound = "O=C1NS(=O)(=O)c2ccccc21"
experimental_value = "inactive"

[[record]]
compound = "CCCCc1oc2ccccc2c1C(=O)c1cc(I)c(OCCN(CC)CC)c(I)c1"
experimental_value = "inactive"

[[record]]
compound = "NNc1nc(-c2ccc([N+](=O)[O-])cc2)cs1"
experimental_value = "inactive"

[[record]]
compound = "Oc1cccc2c(O)cccc12"
experimental_value = "inactive"

[[record]]
compound = "Nc1cc(Cl)c(-c2cc(Cl)c(N)cc2Cl)cc1Cl"
experimental_value = "inactive"

[[record]]
compound = "OCCN1CN(CCO)CN(CCO)C1"
experimental_value = "inactive"

[[record]]
compound = "Cc1[nH]nc2c1N=C(c1ccccc1Cl)c1cc([N+](=O)[O-])ccc1N2"
experimental_value = "inactive"

[[record]]
compound = "CCOC(=O)CN[C@@H](C(=O)N1CC[C@H]1C(=O)NCc1ccc(/C(N)=N/O)cc1)C1CCCCC1"
experimental_value = "inactive"

[[record]]
compound = "C=COC(=O)C(C)(C)CCCCCC"
experimental_value = "inactive"

[[record]]
compound = "O=C(O)CCC(F)(F)C(F)(F)C(F)(F)C(F)(F)C(F)(F)F"
experimental_value = "inactive"

[[record]]
compound = "Cc1cc(Cc2cc(C)cc(C(C)(C)C)c2O)c(O)c(C(C)(C)C)c1"
experimental_value = "inactive"

[[record]]
compound = "Cc1ccc(N=Nc2c(O)ccc3ccccc23)c(C)c1"
experimental_value = "inactive"

